Item-by-item account of IC50
Tested on: HTT mRNA
EXPERIMENT SUMMARY: Splicing RT-qPCR assay, HTT canonical (CJ) and alternative (AJ) junction mRNA
Type: cell-based, human
SETUP CONDITIONS: Homo sapiens, canonical junction mRNA, qPCR panel; read-out: HTT CJ (decrease in CJ mRNA levels, IC50)
Structures can show the parent of a compound that is named as a salt.

Examples with their reported IC50 follow.
>>> print(df.to_string())
                                   molecule    system      reading
0  Cc1cn2nc(-c3cc(Cl)c4cc(N5C[C@H](C)N[C@@H](C)C5)cnc4n3)cc(C)c2n1  HTT mRNA  0.1 to 1 µM
1  CN[C@@H]1CCN(c2cnc3nc(-c4cc5cn(C)nc5c(C)c4O)cc(Cl)c3c2)C1 [Compound 286, hydrochloride]  HTT mRNA     < 0.1 µM

In: Can you share its IC50? I mean this molecule: Cn1cc2cc(-c3ccc4c(Cl)c(N5CCNC6(CC6)C5)cnc4n3)c(O)cc2n1
Out: 1 to 10 µM

In: Can you share its IC50? I mean this molecule: CN[C@@H]1CN(c2cnc3nc(-c4cc5cn(C)nc5c(C)c4O)ccc3c2)C[C@H]1F (single isomer, unassigned)
Out: 0.1 to 1 µM

In: Can you share its IC50? I mean this molecule: C[C@H]1CN(c2cnc3nc(-c4cc(F)c5nn(C)cc5c4)cc(Cl)c3c2)CCN1
Out: 0.1 to 1 µM

In: Can you share its IC50? I mean this molecule: Cc1c(O)c(-c2cc(Cl)c3cc(N(C)[C@H]4CCNC4)cnc3n2)cc2cn(C)nc12
Out: 0.1 to 1 µM

In: Can you share its IC50? I mean this molecule: CN[C@H]1CN(c2cnc3nc(-c4cc5cn(C)nc5c(C)c4O)ccc3c2)C[C@H]1C
Out: 0.1 to 1 µM

In: Can you share its IC50? I mean this molecule: Cc1cn2cc(-c3ccc4cc(N(C)[C@@H]5CCNC5)cnc4n3)cc(F)c2n1 [Compound 361, hydrochloride]
Out: > 10 µM

In: Can you share its IC50? I mean this molecule: Cc1c(O)c(-c2ccc3nc(N4CCNC(C)C4)cnc3n2)cc2cn(C)nc12 (stereo not drawn)
Out: 0.1 to 1 µM

In: Can you share its IC50? I mean this molecule: Cc1c(O)c(-c2ncc3cc(N4CC[C@H](N)C4)cnc3n2)cc2cn(C)nc12 [Compound 160, 2,2,2-trifluoroacetate]
Out: 0.1 to 1 µM

In: Can you share its IC50? I mean this molecule: Cc1cn2nc(-c3ccc4c(Cl)c(N5C[C@H](C)N[C@@H](C)C5)cnc4n3)cc(C)c2n1
Out: 0.1 to 1 µM

In: Can you share its IC50? I mean this molecule: Cn1cc2cc(-c3cc(Cl)c4cc(N5CC[C@H](NC(C)(C)C)C5)cnc4n3)c(O)c(F)c2n1
Out: < 0.1 µM

In: Can you share its IC50? I mean this molecule: Cn1cc2cc(-c3cnc4cc(N5CC[C@H](NC6CC6)C5)ccc4n3)c(O)c(F)c2n1
Out: < 0.1 µM

In: Can you share its IC50? I mean this molecule: Cc1c(O)c(-c2cc(C3CC3)c3cc(N4C[C@@H](C)N[C@@H](C)C4)cnc3n2)cc2cn(C)nc12
Out: 1 to 10 µM

In: Can you share its IC50? I mean this molecule: Cc1c(O)c(-c2cc(Cl)c3cc(NC4CCNC4)cnc3n2)cc2cn(C)nc12 (stereo not drawn)
Out: 0.1 to 1 µM
